Test system: Fibroblast
Assay: Multiplex assay against human fibroblast
Assay type: toxicity, cell-based
Details: 24 h, 10 µM, compound concentration 10 uM, replicate 1
VALUE KIND: Population Fragmented Nuclei (%)
Use % as the unit, but write only the number.

{"columns": ["MOL SMILES", "Population Fragmented Nuclei (%)"],
 "data": [
  ["CNc1nc(NCc2ccc(NS(C)(=O)=O)cc2Cl)cc(-c2ccccn2)n1", 31],
  ["CN(C)CC#Cc1ccc(OCCCc2sc(N3CCc4cccc(C(=O)Nc5nc6ccccc6s5)c4C3)nc2C(=O)O)c(F)c1", 27]
]}

Attention now shifts to the item below.
Problem: Requested field: Population Fragmented Nuclei (%). Item: c1cn2cc(-c3ccc4cn[nH]c4c3)nc(Nc3ccc(N4CCOCC4)cc3)c2n1
Solution: 22

----------
System: Fibroblast
Test: Multiplex assay against human fibroblast
Assay type: toxicity, cell-based
Details: 48 h, 1 µM, compound concentration 1 uM, replicate 2
VALUE KIND: Population Tubulin-Different-Phenotype (%)

{"columns": ["COMPOUND", "REPORTED RESULT"],
 "data": [
  ["COc1ncc(-c2ccc3nccc(-c4ccnnc4)c3c2)cc1NS(=O)(=O)c1ccc(F)cc1F", "53%"]
]}

Problem: Requested field: Population Tubulin-Different-Phenotype (%). Item: Cl.N#Cc1ccc2[nH]cc(CCCCN3CCN(c4ccc5oc(C(N)=O)cc5c4)CC3)c2c1 [VILAZODONE HYDROCHLORIDE]
Solution: 64%

Problem: Entry to check: C=CC(=O)Nc1cccc(C(=O)Nc2ccc(Nc3cc(-c4[nH]c(SC)nc4C)ccn3)cc2)c1
Solution: 20%

Problem: Entry to check: CC(C)NCC(O)COc1ccc(CCOCC2CC2)cc1.Cl (centres undefined) [BETAXOLOL HYDROCHLORIDE]
Solution: 35%

----------
Tested on: HEK-293T
Experiment: Multiplex assay against HEK293T
Assay type: toxicity, cell-based
Settings: human, 24 h, 10 µM, compound concentration 10 uM, replicate 2
VALUE KIND: Population Apoptotic (%)
Don't forget the unit after the value.

{"columns": ["MOLECULE", "Population Apoptotic (%)"],
 "data": [
  ["OC1(c2ccc(Cl)cc2)CCN(Cc2c[nH]c3ccccc23)CC1", "89%"]
]}

Problem: Requested field: Population Apoptotic (%). Item: Cc1c(-c2ccc(O)cc2)n(Cc2ccc(OCCN3CCCCCC3)cc2)c2ccc(O)cc12 [BAZEDOXIFENE]
Solution: 90%

Problem: Entry to check: Cl.N#Cc1ccc2[nH]cc(CCCCN3CCN(c4ccc5oc(C(N)=O)cc5c4)CC3)c2c1 [VILAZODONE HYDROCHLORIDE]
Solution: 92%

Problem: Entry to check: Cc1csc2c(N[C@@H](C)CN3CCN(S(=O)(=O)c4ccc(Cl)c(Cl)c4)CC3)ncnc12
Solution: 88%

----------
// reported Population Hoechst High Intensity Objects (%) per item
Tested on: U2OS
Assay: Multiplex assay against U2OS
Type: toxicity, cell-based
Settings: human, 12 h, 1 µM, compound concentration 1 uM, replicate 2
Use % as the unit, but write only the number.

Problem: Requested field: Population Hoechst High Intensity Objects (%). Item: CN1CCN(CCOc2cc(OC3CCOCC3)c3c(Nc4c(Cl)ccc5c4OCO5)ncnc3c2)CC1 [SARACATINIB]
Solution: 10

Problem: Entry to check: OC1(c2ccc(Cl)cc2)CCN(Cc2c[nH]c3ccccc23)CC1
Solution: 10

Problem: Entry to check: Cc1c(-c2ccc(O)cc2)n(Cc2ccc(OCCN3CCCCCC3)cc2)c2ccc(O)cc12 [BAZEDOXIFENE]
Solution: 10
